For each of the binders below, state its Anti-CD28 Fab signal in the presence of CD28.
# measurement-target: T1, anti-CD28 Fab (SEQ ID NOs: 202, 203)
# T1 construct: biotinylated and captured on neutravidin coated plates in the phage ELISA
# T1 sequence (VH, as listed by the source, chain 1 of 2): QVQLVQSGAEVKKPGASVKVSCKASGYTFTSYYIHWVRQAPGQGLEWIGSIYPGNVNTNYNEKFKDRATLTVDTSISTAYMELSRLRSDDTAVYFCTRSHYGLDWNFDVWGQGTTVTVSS
# T1 sequence (VL, as listed by the source, chain 2 of 2): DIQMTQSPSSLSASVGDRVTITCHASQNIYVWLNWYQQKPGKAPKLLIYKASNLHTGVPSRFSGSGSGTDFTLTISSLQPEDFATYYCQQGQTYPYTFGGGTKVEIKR
# experiment-notes: phage binding ELISA; Fab wells pre-incubated with CD28 antigen (competitor);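 note: clonal phage supernatants added to wells preincubated with CD28 antigen in blocking buffer versus blocking buffer alone, washed, bound phage read by HRP-conjugated anti-M13 antibody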

(Q) Name the reported Anti-CD28 Fab signal in the presence of CD28 value associated with the binder YCDGHRPEYMEKCL [Phage-315]
(A) 0.06

(Q) Also YCDGHSWEYIQKCL [Phage-326] , if possible.
(A) 0.07

(Q) Moving on to YCDGHSPEYIAKCL [Phage-374]
(A) 0.23

(Q) Input YCDGHLPVYLEKCL [Phage-444]
(A) 0.06
